Test system: Cordana musae
Test: in vitro-Test with fungal microorganisms, Method B (tables E9-E16)
Type: cell-based
Details: single active, 0.2 ppm
Description: Example: In Vitro-Test with Fungal Microorganisms Wells of 96-well microtiter plates are filled with 30 μl of a preparation of test compound or compound combination in methanol+emulsifier alkylaryl-polyglycol-ether. […] With the aid of a photometer, the extinction in all wells is measured at the wavelength of 600 nm. The microtiter plates are incubated for 3 to 7 days at 20° C. and 85% relative humidity. After the incubation inhibition of growth is determined photometrically. […]
Each record here notes measured Efficacy.
Give just the numeric value; % need not be written.

N#Cc1ccc(Oc2ccc(C(F)(F)C(O)(Cn3[nH]cnc3=S)c3ccc(F)cc3F)nc2)cc1 (stereo not drawn) : 10

// query What does the data say about its Efficacy? Entry: CC(C)c1ccc(Cl)cc1CN(C(=O)c1c(C(F)F)nn(C)c1F)C1CC1
// result 9

// query Returns the measured Efficacy for the input molecule. Input: Cn1cc(C(=O)Nc2ccc(F)cc2-c2ccc(Cl)c(Cl)c2)c(C(F)F)n1
// result 0

// query Fill blank: measured Efficacy of the molecule COc1ccnc(C(=O)N[C@H]2COC(=O)[C@H](Cc3ccccc3)[C@@H](OC(=O)C(C)C)[C@H](C)OC2=O)c1OCOC(=O)C(C)C is ____.
// result 44

// query Efficacy for Cc1nn(C)c(F)c1C(=O)Nc1ccccc1C(C)CC(C)C (stereo not drawn) ?
// result 0

// query Requested field: Efficacy. Item: Cc1cccc(-n2nnn(C)c2=O)c1COc1ccn(-c2ccc(Cl)cc2)n1
// result 19
